Data provenance is patent US20250304567A1.

# Test system: p-IKKa levels in L363 (NIK translocated multiple myeloma) cells
# Method description: Effect of compounds on p-IKKa levels in L363 (NIK translocated multiple myeloma) cells (AlphaLISA SureFire Ultra p-IKKa Ser176/180)
# Type: cell-based, human
# Experimental conditions: Homo sapiens, L-363, p-IKKa levels in L363 cells; average if tested more than once; read-out: Assay 2 IC50
pIC50: −log10 of the molar value.
Measurement kind: pIC50

> print(dat)
                                    compound  result.value
 1  CN1CC[C@@](O)(c2cc(-c3csc(-c4ccnc(Nc5ccn(C)n5)n4)n3)ccc2F)C1=O (single isomer, unassigned) [Example 24]        < 6.30
 2  Cc1ncc(Nc2nccc(-c3csc(-c4cccc([C@]5(O)CCN(C)C5=O)c4)n3)n2)s1 [Example 249]        < 6.30
 3  COC[C@@H](Nc1nccc(-c2nc(-c3cccc([C@]4(O)CCN(C)C4=O)c3)cs2)n1)c1ccnn1C (single isomer, unassigned) [Example 130]  6.30 to 7.00
 4  CN1CC[C@@](O)(c2cccc(-c3nc(-c4ccnc(NC5CC6(CC(O)C6)C5)n4)cs3)c2)C1=O (some centres unmarked) [Example 188]        < 6.30
 5  CN1CC[C@@](O)(c2cccc(-c3nc(-c4ccnc(Nc5ccnn5CC5CC5)n4)cs3)c2)C1=O [Example 65]        < 6.30
 6  COCCCNc1nccc(-c2csc(-c3cccc([C@]4(O)CCN(C)C4=O)c3)n2)n1 [Example 242]        < 6.30
 7  CN1CC[C@@](O)(c2cccc(-c3nc(-c4ccnc(N)n4)cs3)c2)C1=O [Example 6]        < 6.30
 8  CN1CC[C@@](O)(c2cccc(-c3csc(-c4ccnc(Nc5cnn(CCO)c5)n4)n3)c2)C1=O [Example 83]        < 6.30
 9  CN1CC[C@@](O)(c2cccc(-c3nc(-c4ccnc(NC5CCC(F)(F)CC5)n4)cs3)c2)C1=O [Example 241]        < 6.30
10  CC(C)n1cc(Nc2nccc(-c3csc(-c4cccc([C@]5(O)CCN(C)C5=O)c4)n3)n2)cn1 [Example 276]        > 7.00
11  COc1nn(CC(F)F)cc1Nc1nccc(-n2ccc(-c3cc([C@]4(O)CCN(C)C4=O)ccn3)n2)n1 (single isomer, unassigned) [Example 155]        > 7.00
12  C[C@@H](Nc1nccc(-n2ccc(-c3cccc([C@]4(O)CCN(C)C4=O)c3)n2)n1)c1cnn(C)c1 (single isomer, unassigned) [Example 94]        < 6.30
13  CN1CC[C@@](O)(c2cccc(-c3csc(-c4ccnc(Nc5cnn(C)c5)n4)n3)c2)C1=O [Example 79]        < 6.30
14  CN1CC[C@@](O)(c2cccc(-c3csc(-c4ccnc(Nc5cnn(CC(F)F)c5)n4)n3)c2)C1=O [Example 80]        > 7.00
